Target: human DPPS (Homo sapiens, UniProt Q5T2R2)
Construct: made in house
Sequence (Q5T2R2 1-415): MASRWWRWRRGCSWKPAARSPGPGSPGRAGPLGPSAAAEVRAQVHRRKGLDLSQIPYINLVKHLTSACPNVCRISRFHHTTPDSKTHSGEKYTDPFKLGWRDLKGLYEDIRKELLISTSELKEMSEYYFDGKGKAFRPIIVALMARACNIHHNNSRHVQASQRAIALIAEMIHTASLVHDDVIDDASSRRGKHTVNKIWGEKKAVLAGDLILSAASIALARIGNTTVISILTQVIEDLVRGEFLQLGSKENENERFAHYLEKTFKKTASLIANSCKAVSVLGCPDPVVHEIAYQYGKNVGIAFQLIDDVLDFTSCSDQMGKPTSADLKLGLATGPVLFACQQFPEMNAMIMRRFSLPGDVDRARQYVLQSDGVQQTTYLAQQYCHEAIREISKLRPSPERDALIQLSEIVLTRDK
Sequence (Q86YH6 1-399 partner): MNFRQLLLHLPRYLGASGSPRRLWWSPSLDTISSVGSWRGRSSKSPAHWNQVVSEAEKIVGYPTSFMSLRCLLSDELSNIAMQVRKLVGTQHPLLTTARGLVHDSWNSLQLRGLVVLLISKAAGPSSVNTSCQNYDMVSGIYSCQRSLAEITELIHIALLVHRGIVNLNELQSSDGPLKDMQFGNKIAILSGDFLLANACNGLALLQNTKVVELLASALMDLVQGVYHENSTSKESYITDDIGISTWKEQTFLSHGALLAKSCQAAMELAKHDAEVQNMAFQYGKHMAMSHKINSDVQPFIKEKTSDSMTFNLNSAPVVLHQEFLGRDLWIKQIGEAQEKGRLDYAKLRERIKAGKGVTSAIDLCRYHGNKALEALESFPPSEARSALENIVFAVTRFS
Experiment: human DPPS enzyme inhibition
Assay type: biochemical
Settings: Table 1, experimental
Value Type: DPPS pKi

Reported DPPS pKi, compound NCCC(O)(P(=O)(O)O)P(=O)(O)O [BPH-5, reference compound] : ____
6.3

Reported DPPS pKi, compound CCOCCOCCCc1ccc[n+](CC(P(=O)([O-])O)P(=O)(O)O)c1 (stereo not drawn) : ____
6.8

Reported DPPS pKi, compound O=P([O-])(O)C(O)(C[n+]1cccc(-c2c[nH]cn2)c1)P(=O)(O)O (stereo not drawn) : ____
6
